# Emax values compiled below
target: ligand binding domain of human FXR (Homo sapiens, UniProt Q96RI1); construct: purchased Thermofisher (LanthaScreen) PV4833; test: biochemical; conditions: extent of activation relative to GW4064; read-out: Ligand Binding % Efficacy
Sequence (Q96RI1 262-486 limits assumed): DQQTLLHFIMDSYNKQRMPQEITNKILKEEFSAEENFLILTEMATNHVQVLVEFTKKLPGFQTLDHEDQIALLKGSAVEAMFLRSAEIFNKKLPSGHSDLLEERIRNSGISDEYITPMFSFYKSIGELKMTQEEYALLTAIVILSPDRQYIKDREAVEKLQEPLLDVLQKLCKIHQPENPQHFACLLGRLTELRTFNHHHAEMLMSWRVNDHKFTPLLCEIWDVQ
measured_quantity: Emax (%)

- compound: "O=C(O)c1ccc(N2C[C@@H]3C[C@H]2C[C@H]3OCc2c(C3CC3)cnn2-c2c(Cl)cccc2Cl)cc1F"
  measured_quantity: "Emax"
  measurement_units: "%"
  readout_number: 133
- compound: "O=C(O)c1cc(F)c2nc(N3C[C@@H]4C[C@H]3C[C@H]4OCc3c(C4CC4)cnn3-c3c(Cl)cccc3Cl)sc2c1"
  measured_quantity: "Emax"
  measurement_units: "%"
  readout_number: 151
- compound: "O=C(O)c1ccc(N2C[C@@H]3C[C@H]2C[C@H]3OCc2c(-c3c(Cl)cccc3Cl)cnn2C2CC2)cc1F"
  measured_quantity: "Emax"
  measurement_units: "%"
  readout_number: 102
- compound: "O=C(O)c1ccc(N2C(=O)[C@@H]3C[C@H]2C[C@H]3OCc2c(C3CC3)cnn2-c2c(Cl)cccc2Cl)cc1F"
  measured_quantity: "Emax"
  measurement_units: "%"
  readout_number: 176
- compound: "O=C(O)c1cc(C2CCCC2)c2nc(N3C[C@@H]4C[C@H]3C[C@H]4OCc3c(-c4c(Cl)cccc4Cl)nnn3C3CC3)sc2c1"
  measured_quantity: "Emax"
  measurement_units: "%"
  readout_number: 168
- compound: "O=C(O)CCc1ccc(N2C(=O)[C@@H]3C[C@H]2C[C@H]3OCc2c(C3CC3)cnn2-c2c(Cl)cccc2Cl)c(F)c1"
  measured_quantity: "Emax"
  measurement_units: "%"
  readout_number: 136
- compound: "CC[C@@H]1[C@@H]2C[C@@H](C[C@H]2OCc2c(C3CC3)cnn2-c2c(Cl)cccc2Cl)N1c1ccc(C(=O)O)cc1"
  measured_quantity: "Emax"
  measurement_units: "%"
  readout_number: 52
- compound: "O=C(O)c1c(F)cc(N2C[C@@H]3C[C@H]2C[C@H]3OCc2c(C3CC3)cnn2-c2c(Cl)cccc2Cl)cc1F"
  measured_quantity: "Emax"
  measurement_units: "%"
  readout_number: 156
- compound: "O=C(O)c1cc(OC2CC2)c2nc(N3C[C@@H]4C[C@H]3C[C@H]4OCc3c(C4CC4)cnn3-c3c(Cl)cccc3Cl)sc2c1"
  measured_quantity: "Emax"
  measurement_units: "%"
  readout_number: 116
- compound: "O=C(O)CCc1ccc(N2C[C@@H]3C[C@H]2C[C@H]3OCc2c(C3CC3)cnn2-c2c(F)cccc2Cl)c(F)c1"
  measured_quantity: "Emax"
  measurement_units: "%"
  readout_number: 185
- compound: "C[C@@H]1[C@@H]2C[C@@H](C[C@H]2OCc2c(C3CC3)cnn2-c2c(Cl)cccc2Cl)N1c1ccc(C(=O)NS(=O)(=O)C2CC2)c(F)c1"
  measured_quantity: "Emax"
  measurement_units: "%"
  readout_number: 59
- compound: "O=C(O)CCc1ccc(N2C[C@@H]3C[C@H]2C[C@H]3OCc2c(C3CC3)cnn2-c2c(Cl)cccc2Cl)cc1F"
  measured_quantity: "Emax"
  measurement_units: "%"
  readout_number: 144
- compound: "O=C(O)c1ccc(N2C[C@@H]3C[C@H]2C[C@H]3OCc2c(-c3c(Cl)cccc3Cl)cnn2C2CC2)cc1"
  measured_quantity: "Emax"
  measurement_units: "%"
  readout_number: 96
